Cited source: patent US20160264664A1

Biological target: T1, mouse P2X7 (mouse, UniProt Q9Z1M0 1-595)
T1 sequence: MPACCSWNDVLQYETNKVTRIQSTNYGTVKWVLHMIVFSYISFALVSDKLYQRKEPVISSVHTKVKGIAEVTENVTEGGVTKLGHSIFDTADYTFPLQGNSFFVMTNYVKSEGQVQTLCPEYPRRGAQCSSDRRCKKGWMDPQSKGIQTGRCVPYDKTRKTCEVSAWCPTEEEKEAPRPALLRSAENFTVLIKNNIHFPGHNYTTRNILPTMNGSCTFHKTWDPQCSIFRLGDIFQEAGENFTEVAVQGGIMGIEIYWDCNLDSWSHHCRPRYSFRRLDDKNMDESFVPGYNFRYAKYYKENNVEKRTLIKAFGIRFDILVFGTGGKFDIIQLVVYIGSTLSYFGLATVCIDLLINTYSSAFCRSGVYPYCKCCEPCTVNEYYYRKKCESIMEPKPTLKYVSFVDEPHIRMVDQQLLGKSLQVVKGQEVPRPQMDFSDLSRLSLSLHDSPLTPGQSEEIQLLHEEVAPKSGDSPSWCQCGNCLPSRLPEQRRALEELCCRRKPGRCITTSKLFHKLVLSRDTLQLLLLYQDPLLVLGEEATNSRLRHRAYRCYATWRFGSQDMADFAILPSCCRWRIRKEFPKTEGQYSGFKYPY
Test: cell-based or functional assay
Entries annotated with measured IC50 (nM) against 100 uM ATP (CD62L shedding, Yac-1 cells)
Numeric only. Scale: nM

{"columns": ["binder", "unit_spec", "result_number"],
 "data": [
  ["P2X7PMP8G11 (VHH, family 5, 1; on phage or c-myc/His6-tagged in assays; also called 8011) VHH: AVQLVESGGGLVQAGGSLRLSCAASGNFFRVNTMAWYRQAPGKQRELVADITRGDRTNYADTVNGRFTISRDNVRNTVYLQMNGLRPEDTAAYYCYAVIELGVLEPRDYWGQGTQVTVSS", "nM", 37]
]}

The record that follows has no IC50 (nM) against 100 uM ATP (CD62L shedding, Yac-1 cells) shown yet.
Quick check: IC50 (nM) against 100 uM ATP (CD62L shedding, Yac-1 cells) of P2X7PMP13A7 (VHH, family 22; on phage or c-myc/His6-tagged in assays) VHH: EVQLVESGGGLVQPGESLRLSCTASRFMLDYYDIGWFRQAPGKEREGVSCRFTNDGSTAYADSVKGRFTISRDIVKHTVYLQMNSLQPEDTAVYYCAAGPLTKRRQCVPGDFSMDFWGEGTLVTVSS ?
6
